quantity: melting point (°C)
Express it in °C; write the number only.

Consider the following illustrative entries.
OC(Cn1cncn1)(c1ccc(Oc2ccc(Cl)cc2)cc1Cl)C1CC1 (stereo not shown); 110
CC#CC(O)(Cn1cncn1)c1ccc(Oc2ccc(Cl)cc2)cc1C(F)(F)F (stereo not shown); 137
CC#CC(O)(Cn1cncn1)c1ccc(Oc2ccc(Cl)cc2)cc1Cl (stereo not shown); 137

Then there is this compound:
INPUT: For CC(C)C(O)(Cn1cncn1)c1ccc(Oc2ccc(Cl)cc2)cc1C(F)(F)F (stereo not shown) , what is its reported melting point?
OUTPUT: 114

* * *

# Test system: Alternaria solani
# assay-method-text: Microtest: activity against early blight caused by Alternaria solani (Alteso)
# Format: cell-based
# details: solo 63 ppm
quantity: Observed efficacy
# output: bare number, no unit

Consider the following illustrative entries.
CCN(Cc1ccc(Cl)nc1)/C(=C/[N+](=O)[O-])NC; 8
Cc1ccc(C(C)NC(=O)[C@@H](NC(=O)OC(C)C)C(C)C)cc1 (stereo partly drawn) [II-51, iprovalicarb, reference compound]; 1
C[N+]1(C)CCCCC1.[Cl-] [Mepiquat-cl]; 16
CCC(=O)C1=C([O-])CC(C(=O)[O-])CC1=O.[Ca+2] (stereo not drawn); 2
CCCCCCCCc1c(CC)nc2ncnn2c1N [II-1, ametoctradin, reference compound]; 6

INPUT: For COC(=O)Nc1nc2ccccc2[nH]1 [II-8, carbendazim, reference compound] , what is its reported Observed efficacy?
OUTPUT: 34

* * *

# System: Botrytis cinerea
# assay-method-text: Microtest: activity against the grey mold Botrytis cinerea (Botrci)
# Type: cell-based
# details: solo 0.016 ppm
quantity: Observed efficacy
# output: bare number, no unit

Consider the following illustrative entries.
Cn1cc(C(=O)Nc2ccc(F)cc2-c2ccc(Cl)c(Cl)c2)c(C(F)F)n1 [II-6, bixafen, reference compound]; 8
Fc1ccc([C@]2(Cn3cncn3)O[C@H]2c2ccccc2Cl)cc1 [Epoxiconazol]; 11
CC(C)(C)C(O)(CCc1ccc(Cl)cc1)Cn1cncn1 (stereo not shown) [Tebuconazol]; 9

INPUT: For CC(C)C1C2CCC1c1c(NC(=O)c3cn(C)nc3C(F)F)cccc12 (stereo not shown) [II-50, isopyrazam, reference compound] , what is its reported Observed efficacy?
OUTPUT: 6

* * *

# System: Botrytis cinerea
# assay-method-text: Microtest: activity against the grey mold Botrytis cinerea (Botrci)
# Format: cell-based
# details: solo 4 ppm
quantity: Observed efficacy
# output: bare number, no unit

INPUT: For OC(Cc1ccccc1Cl)(Cn1nc[nH]c1=S)C1(Cl)CC1 (stereo not shown) [Prothioconazol] , what is its reported Observed efficacy?
OUTPUT: 72

INPUT: For Cc1ccc(C(C)NC(=O)[C@@H](NC(=O)OC(C)C)C(C)C)cc1 (stereo partly shown) [II-51, iprovalicarb, reference compound] , what is its reported Observed efficacy?
OUTPUT: 2

INPUT: For CCC(=O)C1=C([O-])CC(C(=O)[O-])CC1=O.[Ca+2] (stereo not shown) [Prohexadion-Ca] , what is its reported Observed efficacy?
OUTPUT: 10

INPUT: For CO/C=C(/C(=O)OC)c1ccccc1Oc1cc(Oc2ccccc2C#N)ncn1 [II-3, azoxystrobin, reference compound] , what is its reported Observed efficacy?
OUTPUT: 14
